Assay: Antioxidant activity assessed as trolox equivalent at 0.25 to 1.5 uM by ORAC-fluorescein assay
Format: functional
Please provide measured Activity for the entries that follow.
// keep it numeric: no unit symbol after the value

Form field Activity, entry "COc1cc(O)c(CC=C(C)C)c(O)c1C(=O)/C=C/c1ccccc1O" : 2.3

Form field Activity, entry "COc1cc(O)cc(O)c1C(=O)/C=C/c1ccc(O)c(O)c1" : 3

Form field Activity, entry "COc1cc(O)c(CC=C(C)C)c(O)c1C(=O)/C=C/c1ccc(O)cc1" : 2.3

Form field Activity, entry "CC(C)=CCc1c(O)cc(O)c(C(=O)/C=C/c2ccc(O)cc2)c1O" : 3.8

Form field Activity, entry "COc1cc(O)c(CC=C(C)C)c(O)c1C(=O)/C=C/c1cccc(O)c1" : 2.7

Form field Activity, entry "COc1cc(O)c(C(=O)/C=C/c2ccc(O)cc2)c(OC)c1CC=C(C)C" : 1.5

Form field Activity, entry "COc1cc(O)c(C(=O)/C=C/c2ccc(O)cc2)c(O)c1CC=C(C)C" : 1.8
